# composite z-score per record follows
# System: glycogen synthase kinase-3 (GSK3A per assay name; protocol says GSK3B)
# method_description: compounds binding glycogen synthase kinase-3 – biochemical, small-molecule microarray, 635 nm fluorescence, GSK3A, primary screen (AID 1103); further: the record names both GSK3A and GSK3B
# condition_description: fluorescence 635 nm, higher = more signal
measured_property: composite z-score

{"columns": ["compound", "measured_property", "endpoint_result"],
 "data": [
  ["COc1ccc(C(O)C2C=CC3C(=O)N(C)C(=O)C3N2NC(=O)OC(C)(C)C)c2ccccc12 (centres undefined)", "composite z-score", 1.27],
  ["CC(C)=CCCC(C)=CC(O)C1C=CC2C(=O)N(c3ccccc3)C(=O)C2N1Nc1ccc(C(C)C)cc1 (centres undefined)", "composite z-score", 0.615],
  ["CCCCCCc1nc(-c2ccc(-c3ccc(Cl)c(Cl)c3)o2)cc2c1[Si](C(C)C)(C(C)C)O[C@H]2c1ccccc1", "composite z-score", -1.26],
  ["[N-]=[N+]=NCc1ccccc1[C@@H]1OC(c2ccc(OCCCO)cc2)=N[C@]1(CCS(=O)(=O)c1ccccc1)C(=O)N1CCOCC1", "composite z-score", 1.12]
]}

Taken from PubChem BioAssay.
